// provenance: paper PMC11500415

tested_system: SCRM_ACTL (Arabidopsis thaliana, UniProt Q9LSE2)
Construct: SCRM-ACTL (405-494); GST (N, cleaved yes); made in house; host or cells: E. coli BL21
Sequence (Q9LSE2 405-494): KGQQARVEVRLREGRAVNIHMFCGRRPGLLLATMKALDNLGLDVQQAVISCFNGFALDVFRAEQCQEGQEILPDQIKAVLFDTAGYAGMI
procedure_details: BLI direct binding
Parameters: species or system A. thaliana
cond: BLI steady state, read-out: KD (SS)
endpoint: Kd (µM)
Numbers only, in µM.

**Query** Using SCRM_ACTL (Arabidopsis thaliana, UniProt Q9LSE2) as the test system, report measured Kd of O=C1C(c2ccccc2)=NC(NS(=O)(=O)c2ccccc2)(c2ccccc2)N1S(=O)(=O)c1ccccc1 (stereo not shown) [Stomidazolone] .
**Result** 76
